System: Z-138 cell line
Assay: Z-138 Proliferation Assay (Cell Titer Glo)
Type: cell-based
Settings: Homo sapiens, 120 h; Z-138 cells, 5 days incubation, ATP (Cell Titer Glo)
Assignment: determine reported EC50 for the given molecules.

Known EC50 results, listed for orientation:
{"columns": ["molecule", "experimentalResult"],
 "data": [
  ["CC(=O)N1CCC(Nc2cc(C(=O)NC[C@H](O)CN3CCc4[nH]nc(-c5ccccc5)c4C3)ncn2)CC1", "> 5 µM"],
  ["CC(=O)N1CC(Nc2cc(C(=O)NC[C@H](O)CN3CCc4[nH]nc(-c5ccccc5)c4C3)ncn2)C1", "> 5 µM"],
  ["CC(=O)N1CC(Nc2cc(C(=O)NC[C@H](O)CN3CCCc4c3cnn4C)ncn2)C1", "> 5 µM"],
  ["CC(=O)N1CCC(Nc2cc(C(=O)NC[C@H](O)CN3CCc4nc(C)[nH]c4C3)ccn2)CC1", "> 5 µM"]
]}

Quick request: EC50 for each listed item, please.
1. Cn1cc2c(n1)CCN(C[C@@H](O)CNC(=O)c1cc(NC3COC3)ncn1)C2
2. O=C(NC[C@H](O)CN1CCc2ncccc2C1)c1cc(NC2COC2)ncn1
3. O=C(COc1cccc2cccnc12)NCC(O)CN1CCc2cccnc2C1 (centres unmarked)
4. Cc1nc2c(o1)CCN(C[C@@H](O)CNC(=O)c1cc(NC3COC3)ncn1)C2
5. CC(=O)N1CCC(Nc2cc(C(=O)NC[C@H](O)CN3CCc4scc(C)c4C3)ccn2)CC1
6. Cc1nc2c(s1)CN(C[C@@H](O)CNC(=O)c1cc(NC3COC3)ncn1)CC2
7. O=C(COc1cccc2cccnc12)NCC(O)CN1CCc2sccc2C1 (centres unmarked)
8. CC(=O)N1CCC(Nc2cc(C(=O)NC[C@H](O)CN3CCc4nc(N)sc4C3)ncn2)CC1

> 5 µM
1 to 10 µM
> 5 µM
> 5 µM
0.101 to 1 µM
> 5 µM
1 to 10 µM
> 5 µM

Kindly give each listed record's EC50.
1. CC(=O)N1CC(Nc2cc(C(=O)NC[C@H](O)CN3CCc4scc(C)c4C3)ncn2)C1
2. Nc1nc2c(s1)CCN(C[C@@H](O)CNC(=O)c1cc(NC3COC3)ncn1)C2
3. CC(=O)N1CCC(Nc2cc(C(=O)NC[C@H](O)CN3CCc4nn(C)cc4C3)ncn2)CC1
4. CC(=O)N1CCC(Nc2cc(C(=O)NC[C@H](O)CN3CCc4cn[nH]c4C3)ncn2)CC1
5. CC(=O)N1CC(Nc2cc(C(=O)NC[C@H](O)CN3CCc4ncccc4C3)ncn2)C1
6. Cc1nc2c([nH]1)CCN(C[C@@H](O)CNC(=O)c1cc(NC3COC3)ncn1)C2
7. OC(COc1cccc(CNC2CCCC2)c1)CN1CCc2[nH]ncc2C1 (centres unmarked)
8. O=C(NC[C@H](O)CN1CCc2ccncc2C1)c1cc(NC2COC2)ncn1

["0.101 to 1 µM", "> 5 µM", "> 5 µM", "> 5 µM", "> 5 µM", "> 5 µM", "> 40 µM", "> 5 µM"]

I need EC50 for every entry listed below, if you could help.
1. CC(=O)N1CCC(Nc2cc(C(=O)NC[C@H](O)CN3CCc4ccncc4C3)ccn2)CC1
2. Cn1ncc2c1CCCN2C[C@@H](O)CNC(=O)c1cc(NC2COC2)ncn1
3. CC(=O)N1CCC(Nc2cc(C(=O)NC[C@H](O)CN3CCc4[nH]cnc4C3)ncn2)CC1
4. CC(=O)N1CCC(Nc2cc(C(=O)NC[C@H](O)CN3CCc4nc(C)sc4C3)ncn2)CC1

1: > 5 µM; 2: > 5 µM; 3: > 5 µM; 4: > 5 µM

Would you mind giving EC50 for every molecule in the list below?
1. CC(=O)N1CCC(Nc2cc(C(=O)NC[C@H](O)CN3CCc4sc(C)nc4C3)ccn2)CC1
2. CC(=O)N1CC(Nc2cc(C(=O)NC[C@H](O)CN3CCc4nc(N)sc4C3)ncn2)C1
3. CC(=O)N1CCC(Nc2cc(C(=O)NC[C@H](O)CN3CCc4c(cnn4C)C3)ccn2)CC1
4. CC(=O)N1CC(Nc2cc(C(=O)NC[C@H](O)CN3CCc4nc(C)sc4C3)ncn2)C1
5. O=C(COc1cccc2cccnc12)NCC(O)CN1CCc2ncccc2C1 (centres unmarked)

> 5 µM
> 5 µM
> 5 µM
> 5 µM
> 5 µM

Data provenance is patent US20170210751A1.
